Tested on: TTR
protocol: TTR editing in primary human hepatocytes treated with LNP formulated Spy Cas9 mRNA (SEQ ID NO: 2) and sgRNAs (Table 16)
Format: cell-based
conditionSet: LNP formulated Spy Cas9 mRNA (SEQ ID NO: 2) and sgRNA, 72 hours
Strand notation (5' to 3'): a small letter for the sugar, then the base; units joined by * are phosphorothioate-linked, units joined directly phosphodiester-linked; [ ] holds rarer units or linkages, { } end groups; capitals alone tell only the bases. m = 2'-O-methyl; r = 2'-OH (RNA)
Class (required): determined from 12.5 ng mRNA, 3.9 nM sgRNA Avg % Edit; valid ranges are LOW = under 20%, MID = from 20% up to 30%, HIGH = 30% and over

[in] GET /class?item= G000486: TTR sgRNA modified sequence, Human, SEQ ID No. 93; guide sequence of CR003339 (nucleic acid) guide: mA*mC*mA*rCrArArArUrArCrCrArGrUrCrCrArGrCrArGrUrUrUrUrArGrAmGmCmUmAmGmAmAmAmUmAmGmCrArArGrUrUrArArArArUrArArGrGrCrUrArGrUrCrCrGrUrUrArUrCrAmAmCmUmUmGmAmAmAmAmAmGmUmGmGmCmAmCmCmGmAmGmUmCmGmGmUmGmCmU*mU*mU*mU
[out] HIGH

[in] Form: Item = G000568: TTR sgRNA modified sequence, Human, SEQ ID No. 110; guide sequence of CR003391 (nucleic acid) guide: mG*mG*mC*rUrGrUrCrGrUrCrArCrCrArArUrCrCrCrArGrUrUrUrUrArGrAmGmCmUmAmGmAmAmAmUmAmGmCrArArGrUrUrArArArArUrArArGrGrCrUrArGrUrCrCrGrUrUrArUrCrAmAmCmUmUmGmAmAmAmAmAmGmUmGmGmCmAmCmCmGmAmGmUmCmGmGmUmGmCmU*mU*mU*mU ; Class = ?
[out] HIGH

[in] Band for G000572: TTR sgRNA modified sequence, Human, SEQ ID No. 113; guide sequence of CR003385 (nucleic acid) guide: mC*mC*mC*rCrUrArCrUrCrCrUrArUrUrCrCrArCrCrArGrUrUrUrUrArGrAmGmCmUmAmGmAmAmAmUmAmGmCrArArGrUrUrArArArArUrArArGrGrCrUrArGrUrCrCrGrUrUrArUrCrAmAmCmUmUmGmAmAmAmAmAmGmUmGmGmCmAmCmCmGmAmGmUmCmGmGmUmGmCmU*mU*mU*mU ?
[out] HIGH

[in] Sort into band: G000481: TTR sgRNA modified sequence, Human, SEQ ID No. 88; guide sequence of CR003345 (nucleic acid) guide: mU*mC*mU*rArGrArArCrUrUrUrGrArCrCrArUrCrArGrGrUrUrUrUrArGrAmGmCmUmAmGmAmAmAmUmAmGmCrArArGrUrUrArArArArUrArArGrGrCrUrArGrUrCrCrGrUrUrArUrCrAmAmCmUmUmGmAmAmAmAmAmGmUmGmGmCmAmCmCmGmAmGmUmCmGmGmUmGmCmU*mU*mU*mU
[out] MID

[in] Classify this molecule: G000495: TTR sgRNA modified sequence, Human, SEQ ID No. 102; guide sequence of CR003343 (nucleic acid) guide: mC*mA*mG*rArGrGrArCrArCrUrUrGrGrArUrUrCrArCrGrUrUrUrUrArGrAmGmCmUmAmGmAmAmAmUmAmGmCrArArGrUrUrArArArArUrArArGrGrCrUrArGrUrCrCrGrUrUrArUrCrAmAmCmUmUmGmAmAmAmAmAmGmUmGmGmCmAmCmCmGmAmGmUmCmGmGmUmGmCmU*mU*mU*mU
[out] MID

[in] # classify by 12.5 ng mRNA, 3.9 nM sgRNA Avg % Edit band: G000497: TTR sgRNA modified sequence, Human, SEQ ID No. 104; guide sequence of CR003335 (nucleic acid) guide: mC*mU*mG*rCrUrCrCrUrCrCrUrCrUrGrCrCrUrUrGrCrGrUrUrUrUrArGrAmGmCmUmAmGmAmAmAmUmAmGmCrArArGrUrUrArArArArUrArArGrGrCrUrArGrUrCrCrGrUrUrArUrCrAmAmCmUmUmGmAmAmAmAmAmGmUmGmGmCmAmCmCmGmAmGmUmCmGmGmUmGmCmU*mU*mU*mU
[out] LOW

[in] Exam item: assign G000484: TTR sgRNA modified sequence, Human, SEQ ID No. 91; guide sequence of CR003367 (nucleic acid) guide: mA*mG*mA*rCrArCrCrArArArUrCrUrUrArCrUrGrGrArGrUrUrUrUrArGrAmGmCmUmAmGmAmAmAmUmAmGmCrArArGrUrUrArArArArUrArArGrGrCrUrArGrUrCrCrGrUrUrArUrCrAmAmCmUmUmGmAmAmAmAmAmGmUmGmGmCmAmCmCmGmAmGmUmCmGmGmUmGmCmU*mU*mU*mU to the correct category.
[out] LOW

[in] Band assignment needed for G000491: TTR sgRNA modified sequence, Human, SEQ ID No. 98; guide sequence of CR003338 (nucleic acid) guide: mA*mU*mA*rCrCrArGrUrCrCrArGrCrArArGrGrCrArGrGrUrUrUrUrArGrAmGmCmUmAmGmAmAmAmUmAmGmCrArArGrUrUrArArArArUrArArGrGrCrUrArGrUrCrCrGrUrUrArUrCrAmAmCmUmUmGmAmAmAmAmAmGmUmGmGmCmAmCmCmGmAmGmUmCmGmGmUmGmCmU*mU*mU*mU please.
[out] HIGH

[in] Which bin, given its 12.5 ng mRNA, 3.9 nM sgRNA Avg % Edit, does G000500: TTR sgRNA modified sequence, Human, SEQ ID No. 107; guide sequence of CR003337 (nucleic acid) guide: mC*mC*mA*rGrUrCrCrArGrCrArArGrGrCrArGrArGrGrGrUrUrUrUrArGrAmGmCmUmAmGmAmAmAmUmAmGmCrArArGrUrUrArArArArUrArArGrGrCrUrArGrUrCrCrGrUrUrArUrCrAmAmCmUmUmGmAmAmAmAmAmGmUmGmGmCmAmCmCmGmAmGmUmCmGmGmUmGmCmU*mU*mU*mU occupy?
[out] MID

[in] Just checking, what class would you give G000494: TTR sgRNA modified sequence, Human, SEQ ID No. 101; guide sequence of CR003360 (nucleic acid) guide: mG*mU*mG*rArGrUrCrUrGrGrArGrArGrCrUrGrCrArUrGrUrUrUrUrArGrAmGmCmUmAmGmAmAmAmUmAmGmCrArArGrUrUrArArArArUrArArGrGrCrUrArGrUrCrCrGrUrUrArUrCrAmAmCmUmUmGmAmAmAmAmAmGmUmGmGmCmAmCmCmGmAmGmUmCmGmGmUmGmCmU*mU*mU*mU here?
[out] LOW

[in] Please let me know in which category the item G000490: TTR sgRNA modified sequence, Human, SEQ ID No. 97; guide sequence of CR003366 (nucleic acid) guide: mA*mA*mA*rUrArGrArCrArCrCrArArArUrCrUrUrArCrGrUrUrUrUrArGrAmGmCmUmAmGmAmAmAmUmAmGmCrArArGrUrUrArArArArUrArArGrGrCrUrArGrUrCrCrGrUrUrArUrCrAmAmCmUmUmGmAmAmAmAmAmGmUmGmGmCmAmCmCmGmAmGmUmCmGmGmUmGmCmU*mU*mU*mU belongs.
[out] LOW
